Catalogue of protein stability index readings, one per entry.
B1: RSPH3 (parent)
chain: VDVQTELYLEEIADRIIEVDMECQ

Variants of: B1
TEST_METHOD_NOTES: protein stability index of a GFP-peptide fusion (GPS, HEK-293T) (PSI 1-6); higher = more stable;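 also: lentivirally expressed fusions sorted by FACS into six bins by GFP to DsRed ratio, PSI derived from sequencing read proportions per bin multiplied by bin number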
CONDITION_SET: c terminus: a fixed tail appended

MUTATION_NOTATION	protein stability index
E6D	2.03
Q24A	1.95

We next turn to a different variant, shown below.
So what does the record say about protein stability index for E22Q ? 2.01
